These entries and their values trace back to patent US20230340155A1.

I'd be grateful if you could share measured kon for these entries.
# experimental_system: T1, cyno PD-1 (SPR analyte) (cynomolgus monkey)
# T1 construct: Construct of the soluble analyte is not described; also called cynomolgus PD-1
# experiment_description: SPR, ProteOn XPR36, mAb captured by anti-human IgG Fc, cyno PD-1 as analyte, 25 C
Answers are plain numbers, in M⁻¹ s⁻¹.

PD1B1087 (antibody, human IgG1, kappa, V domains shown, IgG1; also called PD1H587/PD1L469; E57W (VH) variant of PD1B878) VH: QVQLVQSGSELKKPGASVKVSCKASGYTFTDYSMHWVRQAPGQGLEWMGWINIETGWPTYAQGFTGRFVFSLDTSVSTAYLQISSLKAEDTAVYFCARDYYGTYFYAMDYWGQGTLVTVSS VL: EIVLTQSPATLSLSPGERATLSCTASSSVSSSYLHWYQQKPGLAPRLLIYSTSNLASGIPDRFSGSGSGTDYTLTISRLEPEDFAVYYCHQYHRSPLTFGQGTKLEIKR :: 212000
PD1B1093 (antibody, human IgG1, kappa, V domains shown, IgG1; also called PD1H585/PD1L652; E57Y (VH), S30P (VL) variant of PD1B878) VH: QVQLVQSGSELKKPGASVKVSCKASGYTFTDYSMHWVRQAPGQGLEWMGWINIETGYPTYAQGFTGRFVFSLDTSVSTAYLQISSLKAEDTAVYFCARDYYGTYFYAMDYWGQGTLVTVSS VL: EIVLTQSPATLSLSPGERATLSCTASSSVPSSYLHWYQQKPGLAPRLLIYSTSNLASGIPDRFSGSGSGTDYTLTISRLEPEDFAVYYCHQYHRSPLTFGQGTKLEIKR :: 169000

# ---- query binder ----
Problem: Indicate its recorded kon; the binder in question is PD1B1086 (antibody, human IgG1, kappa, V domains shown, IgG1; also called PD1H586/PD1L469; E57H (VH) variant of PD1B878) VH: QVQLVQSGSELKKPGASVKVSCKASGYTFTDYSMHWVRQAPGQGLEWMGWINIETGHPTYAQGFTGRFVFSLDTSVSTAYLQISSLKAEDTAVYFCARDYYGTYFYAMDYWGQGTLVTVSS VL: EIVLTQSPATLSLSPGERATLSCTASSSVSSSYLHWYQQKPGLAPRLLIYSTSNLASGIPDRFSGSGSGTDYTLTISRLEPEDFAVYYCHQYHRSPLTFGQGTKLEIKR
Result: 171000
